assay: Metabolic stability in human liver microsomes; assay type: in vitro ADME
attribute measured: CLint scaled (mL/min/kg)
Answer format: numeric, mL/min/kg implied, no suffix.

Would you kindly share the measured CLint scaled for `O=S1(=O)C=C(C2CC2)c2cc3nccc(Nc4ccc5scnc5c4)c3cc21` ? 63

====

test: Metabolic stability in mouse liver microsomes; assay type: in vitro ADME; settings: mouse liver microsomes (MLM)
attribute measured: half-life (min)
Answer format: numeric, min implied, no suffix.

Would you kindly share the measured half-life for O=S1(=O)C=C(C2CC2)c2cc3nccc(Nc4ccc5scnc5c4)c3cc21 [Zharp-99] ? 26

====

Experiment: In vivo mouse pharmacokinetic study
Conditions: male ICR mouse, 10 mg/kg (po)
Method: Cytochrome P450 (CYP) inhibitory potency was determined by industrial standard methods as reported previously ([Dong et al., 2015]). Methods to determine potassium channel hERG inhibition and in vivo pharmacokinetic parameters have been previously published ([Lu et al., 2017]). (C) Pharmacokinetic parameters of Zharp-99 determined in male ICR mouse.
attribute measured: Tmax (h)
Answer format: numeric, h implied, no suffix.

Would you kindly share the measured Tmax for `O=S1(=O)C=C(C2CC2)c2cc3nccc(Nc4ccc5scnc5c4)c3cc21` ? 1

====

assay: In vivo mouse pharmacokinetic study; conditions: male ICR mouse, 10 mg/kg (po)
attribute measured: half-life

Would you kindly share the measured half-life for `O=S1(=O)C=C(C2CC2)c2cc3nccc(Nc4ccc5scnc5c4)c3cc21` ? 1.2 h

====

experiment: In vivo mouse pharmacokinetic study; settings: male ICR mouse, 2 mg/kg (iv), read-out: Vz (volume of distribution)
attribute measured: Vd (L/kg)
Answer format: numeric, L/kg implied, no suffix.

Would you kindly share the measured Vd for O=S1(=O)C=C(C2CC2)c2cc3nccc(Nc4ccc5scnc5c4)c3cc21 [Zharp-99] ? 4.4

====

assay: In vivo mouse pharmacokinetic study; details: male ICR mouse, 2 mg/kg (iv), read-out: CL (clearance)
attribute measured: clearance
# include the unit after the value

Would you kindly share the measured clearance for `O=S1(=O)C=C(C2CC2)c2cc3nccc(Nc4ccc5scnc5c4)c3cc21` ? 33 mL/min/kg

====

experiment: In vivo mouse pharmacokinetic study; settings: male ICR mouse, 2 mg/kg (iv)
attribute measured: half-life (h)
Answer format: numeric, h implied, no suffix.

Would you kindly share the measured half-life for `O=S1(=O)C=C(C2CC2)c2cc3nccc(Nc4ccc5scnc5c4)c3cc21` ? 1.5

====

target: CYP2C9 (Homo sapiens); assay: Cytochrome P450 inhibition, CYP2C9; assay type: in vitro ADME; details: human, read-out: % of CYP inhibiton 2C9
Sequence (P11712 whole entry): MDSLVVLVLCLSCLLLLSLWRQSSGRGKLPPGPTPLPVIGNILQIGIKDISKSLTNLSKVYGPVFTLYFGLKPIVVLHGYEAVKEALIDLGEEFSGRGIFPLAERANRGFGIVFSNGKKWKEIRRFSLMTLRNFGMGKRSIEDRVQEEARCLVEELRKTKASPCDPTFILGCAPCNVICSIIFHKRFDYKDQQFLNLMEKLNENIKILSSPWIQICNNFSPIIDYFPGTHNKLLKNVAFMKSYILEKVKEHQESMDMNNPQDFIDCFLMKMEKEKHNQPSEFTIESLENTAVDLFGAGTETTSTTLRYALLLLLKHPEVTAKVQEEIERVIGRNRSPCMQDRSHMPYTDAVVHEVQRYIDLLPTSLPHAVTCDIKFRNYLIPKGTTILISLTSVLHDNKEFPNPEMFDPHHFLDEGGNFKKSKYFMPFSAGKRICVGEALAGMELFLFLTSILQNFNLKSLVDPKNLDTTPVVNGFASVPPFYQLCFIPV
attribute measured: inhibition at 10 µM (%)
Answer format: numeric, % implied, no suffix.

Would you kindly share the measured inhibition at 10 µM for `O=S1(=O)C=C(C2CC2)c2cc3nccc(Nc4ccc5scnc5c4)c3cc21` ? -5.59

====

assay: Metabolic stability in human liver microsomes; type: in vitro ADME
attribute measured: half-life (min)
Answer format: numeric, min implied, no suffix.

Would you kindly share the measured half-life for O=S1(=O)C=C(C2CC2)c2cc3nccc(Nc4ccc5scnc5c4)c3cc21 [Zharp-99] ? 28

====

test: In vivo mouse pharmacokinetic study; settings: male ICR mouse, 10 mg/kg (po), read-out: AUC (exposure)
attribute measured: AUC
# include the unit after the value

Would you kindly share the measured AUC for O=S1(=O)C=C(C2CC2)c2cc3nccc(Nc4ccc5scnc5c4)c3cc21 [Zharp-99] ? 8.22 µg·h/mL

====

test: Metabolic stability in rat liver microsomes; format: in vitro ADME; conditions: rat liver microsomes (RLM)
attribute measured: half-life (min)
Answer format: numeric, min implied, no suffix.

Would you kindly share the measured half-life for O=S1(=O)C=C(C2CC2)c2cc3nccc(Nc4ccc5scnc5c4)c3cc21 [Zharp-99] ? 37

====

biological target: CYP2D6 (Homo sapiens); assay: Cytochrome P450 inhibition, CYP2D6; format: in vitro ADME; conditions: human, read-out: % of CYP inhibiton 2D6
Sequence (P10635 whole entry): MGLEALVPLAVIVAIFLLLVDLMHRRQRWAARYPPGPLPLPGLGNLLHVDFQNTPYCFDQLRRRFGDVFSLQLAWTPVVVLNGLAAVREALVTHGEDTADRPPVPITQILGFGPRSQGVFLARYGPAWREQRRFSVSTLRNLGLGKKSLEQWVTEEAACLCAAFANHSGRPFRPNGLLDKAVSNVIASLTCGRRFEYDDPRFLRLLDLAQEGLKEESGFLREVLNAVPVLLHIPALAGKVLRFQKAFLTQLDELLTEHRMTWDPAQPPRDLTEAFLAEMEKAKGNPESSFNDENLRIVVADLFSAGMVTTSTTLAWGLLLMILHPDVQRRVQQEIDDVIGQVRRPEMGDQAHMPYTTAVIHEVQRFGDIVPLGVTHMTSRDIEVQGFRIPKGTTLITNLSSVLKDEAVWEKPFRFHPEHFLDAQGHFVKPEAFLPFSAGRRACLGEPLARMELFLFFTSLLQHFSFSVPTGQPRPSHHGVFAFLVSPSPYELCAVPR
attribute measured: inhibition at 10 µM (%)
Answer format: numeric, % implied, no suffix.

Would you kindly share the measured inhibition at 10 µM for `O=S1(=O)C=C(C2CC2)c2cc3nccc(Nc4ccc5scnc5c4)c3cc21` ? -0.44

====

target: CYP2C19 (Homo sapiens, UniProt P33261); test: Cytochrome P450 inhibition, CYP2C19; assay type: in vitro ADME; settings: human, read-out: % of CYP inhibiton 2C19
Sequence (P33261 whole entry): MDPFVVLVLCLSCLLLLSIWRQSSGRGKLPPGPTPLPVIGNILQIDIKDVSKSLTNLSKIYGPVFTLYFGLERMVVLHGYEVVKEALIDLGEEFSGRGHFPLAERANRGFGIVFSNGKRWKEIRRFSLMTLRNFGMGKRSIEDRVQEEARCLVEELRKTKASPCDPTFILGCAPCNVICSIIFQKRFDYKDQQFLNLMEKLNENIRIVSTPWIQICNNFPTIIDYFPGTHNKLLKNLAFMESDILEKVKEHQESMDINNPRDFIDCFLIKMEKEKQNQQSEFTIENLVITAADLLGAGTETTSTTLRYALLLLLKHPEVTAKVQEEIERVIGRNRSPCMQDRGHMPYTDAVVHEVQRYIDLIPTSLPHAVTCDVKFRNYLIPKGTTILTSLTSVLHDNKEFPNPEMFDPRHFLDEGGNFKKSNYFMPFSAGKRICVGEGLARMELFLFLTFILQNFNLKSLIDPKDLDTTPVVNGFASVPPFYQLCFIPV
attribute measured: inhibition at 10 µM (%)
Answer format: numeric, % implied, no suffix.

Would you kindly share the measured inhibition at 10 µM for `O=S1(=O)C=C(C2CC2)c2cc3nccc(Nc4ccc5scnc5c4)c3cc21` ? 4.15

====

target: hERG (Homo sapiens, UniProt Q12809); experiment: hERG inhibition (standard patch clamp); type: cell-based
Sequence (Q12809 whole entry): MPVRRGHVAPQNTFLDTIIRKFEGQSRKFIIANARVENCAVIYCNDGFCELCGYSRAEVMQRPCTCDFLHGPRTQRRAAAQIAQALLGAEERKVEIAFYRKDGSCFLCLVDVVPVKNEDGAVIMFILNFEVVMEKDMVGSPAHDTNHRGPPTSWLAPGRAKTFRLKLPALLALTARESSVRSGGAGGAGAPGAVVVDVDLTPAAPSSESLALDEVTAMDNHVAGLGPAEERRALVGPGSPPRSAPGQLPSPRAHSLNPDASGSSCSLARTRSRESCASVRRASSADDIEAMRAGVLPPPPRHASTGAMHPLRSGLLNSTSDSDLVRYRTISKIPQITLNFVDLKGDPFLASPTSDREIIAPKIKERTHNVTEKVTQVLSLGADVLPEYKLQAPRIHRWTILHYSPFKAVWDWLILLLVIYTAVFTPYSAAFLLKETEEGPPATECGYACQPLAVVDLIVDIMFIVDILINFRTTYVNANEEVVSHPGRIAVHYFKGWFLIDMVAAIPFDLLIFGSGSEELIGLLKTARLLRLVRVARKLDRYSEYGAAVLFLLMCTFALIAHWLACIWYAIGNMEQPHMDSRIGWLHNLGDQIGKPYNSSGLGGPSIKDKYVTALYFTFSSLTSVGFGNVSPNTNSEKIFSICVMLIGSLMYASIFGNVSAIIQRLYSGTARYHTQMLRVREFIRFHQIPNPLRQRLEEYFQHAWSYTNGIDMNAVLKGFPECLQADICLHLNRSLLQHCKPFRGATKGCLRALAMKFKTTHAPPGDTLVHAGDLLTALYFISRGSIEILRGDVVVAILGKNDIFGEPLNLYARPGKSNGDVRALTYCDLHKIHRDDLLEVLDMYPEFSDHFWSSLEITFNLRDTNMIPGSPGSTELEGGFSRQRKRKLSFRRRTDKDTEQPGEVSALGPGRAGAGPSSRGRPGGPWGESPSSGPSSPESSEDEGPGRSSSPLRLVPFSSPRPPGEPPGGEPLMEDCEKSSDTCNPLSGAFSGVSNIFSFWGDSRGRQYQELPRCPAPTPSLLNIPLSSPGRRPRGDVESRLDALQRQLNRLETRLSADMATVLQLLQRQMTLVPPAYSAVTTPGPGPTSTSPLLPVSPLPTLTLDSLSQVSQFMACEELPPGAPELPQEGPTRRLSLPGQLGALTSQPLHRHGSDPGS
attribute measured: IC50

Would you kindly share the measured IC50 for O=S1(=O)C=C(C2CC2)c2cc3nccc(Nc4ccc5scnc5c4)c3cc21 [Zharp-99] ? > 10 µM

====

assay: Metabolic stability in rat liver microsomes; type: in vitro ADME; details: rat liver microsomes
attribute measured: CLint scaled (mL/min/kg)
Answer format: numeric, mL/min/kg implied, no suffix.

Would you kindly share the measured CLint scaled for `O=S1(=O)C=C(C2CC2)c2cc3nccc(Nc4ccc5scnc5c4)c3cc21` ? 67

====

experiment: In vivo mouse pharmacokinetic study; settings: male ICR mouse, 10 mg/kg (po)
attribute measured: Cmax (ng/mL)
Answer format: numeric, ng/mL implied, no suffix.

Would you kindly share the measured Cmax for `O=S1(=O)C=C(C2CC2)c2cc3nccc(Nc4ccc5scnc5c4)c3cc21` ? 2650

====

Test: In vivo mouse pharmacokinetic study
Conditions: male ICR mouse, 2 mg/kg (iv), read-out: AUC
Description: Cytochrome P450 (CYP) inhibitory potency was determined by industrial standard methods as reported previously ([Dong et al., 2015]). Methods to determine potassium channel hERG inhibition and in vivo pharmacokinetic parameters have been previously published ([Lu et al., 2017]). (C) Pharmacokinetic parameters of Zharp-99 determined in male ICR mouse.
attribute measured: AUC (ng·h/mL)
Answer format: numeric, ng·h/mL implied, no suffix.

Would you kindly share the measured AUC for `O=S1(=O)C=C(C2CC2)c2cc3nccc(Nc4ccc5scnc5c4)c3cc21` ? 990
